The entries below pair compounds with pIC50 values for JNK1α1 (Homo sapiens, UniProt P45983), as found in several publications.
pIC50: −log10 of the molar value.

In the examples that follow, each entry is paired with its recorded pIC50.
N#Cc1csc(NC(=O)Cn2c(=O)ccc3cc(C(F)(F)F)ccc32)c1-n1nccn1; > 7.00
O=C(Cn1c(=O)ccc2cc(Cl)ccc21)Nc1scc(Br)c1-c1ncn[nH]1; > 7.00
C[C@@H]1CC[C@@H](Nc2nc(NC(C)(C)C)ncc2CF)C[C@H]1O; < 6.00
O=C(Cn1c(=O)ccn2nccc12)Nc1scc(Br)c1-c1ncn[nH]1; > 7.00
O=C(c1cccc(O)c1F)c1c[nH]c2ncc(-c3cccnc3)cc12; ≥ 5.00
CNC(=O)c1cc(-n2ncc3cc(Nc4ccccc4Cl)ncc32)cs1; < 6.00

(Q) Give the value of pIC50 reported for the following: c1ccc(-c2nc(Nc3ccncc3)c3ccccc3n2)cc1
(A) < 3.52

(Q) Give the value of pIC50 reported for the following: Cc1cc(NC(=O)Nc2cccc(C(=O)c3c[nH]c4ncccc34)c2)on1
(A) ≥ 5.00

(Q) Give the value of pIC50 reported for the following: COC(=O)c1c(Cc2ccc(C(=O)N[C@@H]3[C@@H]4C[C@@H]5C[C@H]3C[C@@](O)(C5)C4)cc2F)c(=O)c2cccnc2n1-c1ccccc1
(A) 7.47

(Q) Give the value of pIC50 reported for the following: CNC(=O)c1cc(-n2ncc3cc(N(C)c4ccccc4OC)c(F)cc32)cs1
(A) 6.00 to 6.70

(Q) Give the value of pIC50 reported for the following: COC(=O)c1c(Cn2ccc(C(=O)N[C@@H]3[C@@H]4C[C@@H]5C[C@H]3C[C@@](O)(C5)C4)cc2=O)c(=O)c2ccc(Cl)cc2n1-c1ccccc1
(A) 7.40
